Target: hMC5-R
Construct: expressed in transfected cells; host or cells: HEK-293
Test: Competitive inhibition assay using [I125]-NDP-α-MSH, hMC5-R membranes
Type: binding, human
Conditions: read-out: Ki (nM) (NDP-α-MSH) MC5-R
Property Label: Ki

Below, each entry is followed by its recorded Ki result.
NCCCC[C@H]1C(=O)N(CCc2ccc3ccccc3c2)CCN1C(=O)[C@@H](Cc1ccc(Cl)cc1Cl)NC(=O)/C=C/c1ccccc1 = 398 nM
CC(C)C[C@@H]1CN(C(=O)[C@H](N)Cc2ccc(Cl)cc2Cl)[C@@H](CCCNC(=N)N)CN1CCc1ccc2ccccc2c1 = 160 nM
Cc1ccc(CCN2C[C@H](CCCNC(=N)N)N(C(=O)[C@H](N)Cc3ccc4ccccc4c3)C[C@H]2C)cc1 = 448 nM

Input Cc1cc(Cl)ccc1C[C@@H](N)C(=O)N1C[C@@H](C)N(CCc2c[nH]c3ccccc23)C[C@@H]1CCCNC(=N)N . Output Ki: 360 nM

###

Biological target: hMC3-R
Construct: expressed in transfected cells; host or cells: HEK-293
Assay: Competitive inhibition assay using [I125]-NDP-α-MSH, hMC3-R membranes
Assay type: binding, human
Conditions: read-out: Ki (nM) (NDP-α-MSH) MC3-R
Property Label: Ki

Below, each entry is followed by its recorded Ki result.
C[C@@H]1CN(C(=O)[C@H](N)Cc2ccc3ccccc3c2)[C@@H](CCCNC(=N)N)CN1C(=O)Cc1c[nH]c2ccccc12 [Example 6] = 1820 nM
Cc1[nH]c2ccccc2c1CCN1C[C@H](CCCNC(=N)N)N(C(=O)[C@H](N)Cc2ccc3ccccc3c2)C[C@H]1C [Example 9] = 451 nM

Input N=C(N)NCCC[C@H]1C(=O)N2C(CC[C@@H]2COc2ccc3ccccc3c2)N1C(=O)[C@@H](Cc1ccc(Cl)cc1Cl)NC(=O)[C@@H]1CC[C@H](c2ccccc2)N1 (stereo partly drawn) [Example 20] . Output Ki: 312 nM

###

Molecular target: hMC3-R
Construct: expressed in transfected cells; host or cells: HEK-293
Experiment: Competitive inhibition assay using [I125]-NDP-α-MSH, hMC3-R membranes
Assay type: binding, human
Details: read-out: Ki (nM) (NDP-α-MSH) MC3-R
Property Label: Ki (nM)
Give just the number in nM; leave the unit off.

Below, each entry is followed by its recorded Ki result.
C[C@@H]1CN(C(=O)[C@H](N)Cc2ccc3ccccc3c2)[C@@H](CCCNC(=N)N)CN1C(=O)CCCc1c[nH]c2ccccc12 [Example 7] = 657
CC(C)C[C@H]1CN(C(=O)[C@H](N)Cc2ccc(Cl)cc2Cl)[C@@H](CCCNC(=N)N)CN1CCc1ccc2ccccc2c1 [Example 3] = 495

Input N=C(N)NCCC[C@H]1C(=O)N2C(CC[C@@H]2COc2ccc3ccccc3c2)N1C(=O)[C@@H](Cc1ccc(Cl)cc1Cl)NC(=O)[C@@H]1Cc2ccccc2CN1 (stereo partly drawn) [Example 23] . Output Ki: 42

Input NCCCC[C@H]1C(=O)N(CCc2ccc3ccccc3c2)CCN1C(=O)[C@@H](Cc1ccc(Cl)cc1Cl)NC(=O)[C@@H]1CC[C@H](c2ccccc2)N1 [Example 19] . Output Ki: 855

Input CC(=O)N[C@H](Cc1ccc2ccccc2c1)C(=O)N1C[C@@H](CC(C)C)N(CCc2ccc3ccccc3c2)C[C@@H]1CCCNC(=N)N [Example 13] . Output Ki: 474

Input Cc1cc(Cl)ccc1C[C@@H](N)C(=O)N1C[C@@H](C)N(C(=O)Cc2ccc3ccccc3c2)C[C@@H]1CCCNC(=N)N [Example 11] . Output Ki: 398

Data origin: patent US20090076029A1
